assay.details: soluble fraction after stress (log2 fold change); higher = more stays soluble; pooled small domains, quantitative proteomics
test.settings: stress: 50 degC
measurement.type: soluble fraction (log2)

[[record]]
sequence_input = "HMPLEQAELRLDLKQAILQMDRQTQELLLLRYVDGLSPGEAGKVLELSRFAVYRREKEALRKLRDYFSH"
recorded_measurement = -1.79

[[record]]
sequence_input = "HMSAQPMEYSRFYSDVTQGRVAEVEIEGREINGRLSTGERFKTFSPETDNKALIGHLLDNGVVIEGKPP"
recorded_measurement = 0.234

[[record]]
sequence_input = "HMSWEELLEHLEKAAERGEEVRIAGVTLHDEEDFKRALRWLKEWL"
recorded_measurement = -1.93

[[record]]
sequence_input = "HMVENMDEFIGRVRRLVSDRLDLLKEASDDEIRETISQVVLELSREQFLTLNEKKTVLEGVFNSMR"
recorded_measurement = -0.399

[[record]]
sequence_input = "HMKFLHLADLHLGKRVNGFSMLEDQAYILRQILTILDDERPDGVLIAGDVYDKPVPPTEAVELLD"
recorded_measurement = -0.604

[[record]]
sequence_input = "HMGAYIPSYAPVDINAATHTVVRGDTVYNISKRYHVSQEDFRAWNGMADNTLSIGQVVKVKPAGYTAPK"
recorded_measurement = -0.087

[[record]]
sequence_input = "HMNTWVEIFRAEDQGQIRDASLVLLAVKVAHRVDMNSSSAPWSLMVPAQDQQRAHHELTTYWQENAH"
recorded_measurement = -1.43

[[record]]
sequence_input = "HMDAYLPETVQKLLDVMDFDVPYSAAQLMEKLGLKSRASFRKLYLLPALEKNLIAMGVPDKPTSRNQTYIR"
recorded_measurement = -0.417

[[record]]
sequence_input = "HMLTQEEITRRRGEILTAAMGVILRKGFLETSMREIAEAAGVGKSTLYDYFPSKDEIMIAYVVD"
recorded_measurement = -0.938

[[record]]
sequence_input = "HMVYFDDEELDRFAGRAADSYTSDETDEFRDVMLTLLPADVMPWTQSIEMRGILLPEQLRDELLML"
recorded_measurement = -0.764

[[record]]
sequence_input = "HMESIEAGTFELDNKTSIDISEDEANLLNKMFEELTETNSKDMYGVMVADEAGFNEILEFAKENL"
recorded_measurement = 0.167

[[record]]
sequence_input = "HMVPTVSVDRDDTLRFEGRPVDWDVLKRELGAVAGIDELKIYADAKVSALTVSKIMKSASEAGVLQFILVT"
recorded_measurement = -0.188

[[record]]
sequence_input = "HMTEIILTARSGRHAVRHRLEGLGYTLTPEELERVHQRFLAVADAKKEVFDEDLHALMADERGT"
recorded_measurement = 0.0349

[[record]]
sequence_input = "HMRLNIRTKNNYSYYTIIKDYTNLNGKRTTTIFEKLGNQQQVEERFGKVNTIENIKKYIEELNNE"
recorded_measurement = -1.23

[[record]]
sequence_input = "HMDAYSYFIRTYPLVDDPLIGDIRRIFAETHDGNPAGDADVRHILWRLLFERELYPTLDEATADWY"
recorded_measurement = -2.54

[[record]]
sequence_input = "HMYFNTADLKADSIHYGSTEQSVIKILGEPEYRETFVDNNVSYELFSYKGNLLLSFVENSLVSL"
recorded_measurement = 0.0896

[[record]]
sequence_input = "HMKNDNIHMMASKINGIALEVGVLTPGMHPKNDLSEGEVGYIVTNLKTTREAKVGDTVTLAKKPAATPLPG"
recorded_measurement = 0.254

[[record]]
sequence_input = "HMIKVAANESNRSDVLEIVRLFRVRVVDVNPESLTIEATGAEGKIDALLGLLEHYGVIELVRSGAVAVT"
recorded_measurement = -0.435

[[record]]
sequence_input = "HMKVPDVQYMNKDSAIEALTANELKYTIVEAENENVAAGVVISQSVERDSQVAPGTSVELVVSTG"
recorded_measurement = 0.0357

[[record]]
sequence_input = "HMGAQPLIEPLSERELEVLALIAEGLTNAEIGRRLFIATGTVKRHVNTIYGKLDVHGRIEAIARARDLHLI"
recorded_measurement = -0.276

[[record]]
sequence_input = "HMGGEPKALLFAGVETREMAEITQRLEAADIPYEIREDGGSIYVARSEVFNARMMLSADGLPS"
recorded_measurement = -0.109

[[record]]
sequence_input = "HMSFPDTYFKGNKVIGLSYNDLKKFLNNAGYSKFDEEVEEWGEKRVSIEDDMVDFYLEDDKVVSI"
recorded_measurement = -0.233

[[record]]
sequence_input = "HMDSPVLTAEIKALIDKELEQNAVKLATGLKKQRKRATDIHDALIRQGHEVSYRTVVRYIRNKTAQTS"
recorded_measurement = -0.061

[[record]]
sequence_input = "HMPNTLAGIERYLGSGMVKGIGPVYASRLVSAFGTAVFDVIEQTPERLREIDGIGEKRTRKITSGWADQ"
recorded_measurement = -0.127

[[record]]
sequence_input = "HMENIDVGQDYKVTMNTIQNLMKTGLVTGTQYKELLREMGVHSGMGAITAQQHQIALDFLNKTMDSA"
recorded_measurement = 0.285

[[record]]
sequence_input = "HMGPRKAGSEATRQKILDAAEILFAERGFHSVSVRDITTEAGVDVALINYHFGSKQLLFETVFMRR"
recorded_measurement = -0.331

[[record]]
sequence_input = "HMQYTQKTMYINDSYVNLRKSASTSSDIIMVVELNTKLTVIGEDGDWYKVKTSSGNAYVLKTLLSNEKKET"
recorded_measurement = -0.108

[[record]]
sequence_input = "HMDMPLIGTAIRGWGIISPAQQETLIKMSILTVEDLAAINDEGIKRIGMGGLDLKNKAKAWLLQLK"
recorded_measurement = -0.751

[[record]]
sequence_input = "HMNLDVPGIIKRAKQALNLKRDSELAEFLGVSRATVTNWAARNSIDFRLLLDKLGNTVDYNWLLLGKGNPK"
recorded_measurement = -0.221

[[record]]
sequence_input = "HMRILGIDPGYAITGYSIIDYVGNKFKLIDSGAVLTKAGVSFPLRLTKIYDDLSMIIDEYKPDA"
recorded_measurement = -0.207

[[record]]
sequence_input = "HMKKQLTISDGDWAGKVSSMLEDMGVINSASEFDKYLSDNGYSNVIKSGTYDVSPEDTFQELAEKIT"
recorded_measurement = 0.414

[[record]]
sequence_input = "HMVGNEEALRAIVESIIAQNTTEVASFREGKEGLIGWFLGQVMRQTGGKADPKLARQILLELLKQ"
recorded_measurement = -0.242

[[record]]
sequence_input = "HMQDLEIKINLGMTYYEVREAIGSPDIIDKINQYGRDFQMWTYYIDDKTKRYYFEDHLLTKI"
recorded_measurement = -3.33

